target: ATM (Homo sapiens); construct: detecting phosphorylation of Chk2 in a human non-small cell lung cancer cell line NCI-H460 (ATCC company); host or cells: NCI-H460 human non-small cell lung cancer cells; experiment: ATM inhibition test (phosphorylation of Chk2 generated by ionizing radiation, AlphaScreen SureFire); type: cell-based; conditions: phosphorylated Chk2 in NCI-H460 cells, ionizing radiation 8Gy, 1 hour after test compound treatment; read-out: ATM inhibitory activity
IC50 values, listed per item
quantity measured: IC50

compound: O=c1cc(N2CCOCC2)cc(-c2cccc3c2Sc2ccc(N[C@H](COCc4ccccc4)CN4CCOCC4)cc2S3)[nH]1 [Example 1-59-2]
quantity measured: IC50
reading: 100 to 500 nM
--
compound: COc1cncc(C(C)Nc2ccc3c(c2)Sc2cccc(-c4cc(N5CCOCC5)cc(=O)[nH]4)c2S3)c1 (single isomer, unassigned) [Example 1-12-145-1]
quantity measured: IC50
reading: < 100 nM
--
compound: CNCC(Nc1ccc2c(c1)Sc1cccc(-c3cc(N4CCOCC4)cc(=O)[nH]3)c1S2)c1nccc(C)n1 (stereo not shown) [Example 1-16-5]
quantity measured: IC50
reading: 500 to 2000 nM
--
compound: COc1ncc(CNc2ccc3c(c2)Cc2ccnc(-c4cc(N5CCOCC5)cc(=O)[nH]4)c2O3)cn1 [Example 2-42-1]
quantity measured: IC50
reading: 500 to 2000 nM
--
compound: Cc1ccc(CNc2ccc3c(c2)Sc2cccc(-c4cc(N5CCOCC5)cc(=O)[nH]4)c2O3)nc1 [Example 4-8-13]
quantity measured: IC50
reading: < 100 nM
--
compound: CCCC(Nc1ccc2c(c1)Cc1cccc(-c3cc(N4CCOCC4)cc(=O)[nH]3)c1O2)c1cncc(OC)c1 (stereo not shown) [Example 2-14-17]
quantity measured: IC50
reading: 100 to 500 nM
--
compound: CC(Nc1ccc2c(c1)Sc1cccc(-c3cc(N4CCOCC4)cc(=O)[nH]3)c1S2)c1ncc(CO)cn1 (stereo not shown) [Example 1-12-92]
quantity measured: IC50
reading: 100 to 500 nM

----------
biological target: ATM (Homo sapiens, UniProt Q13315); construct: detecting phosphorylation of Chk2 in a human non-small cell lung cancer cell line NCI-H460 (ATCC company); host or cells: NCI-H460 human non-small cell lung cancer cells; assay: ATM inhibition test (phosphorylation of Chk2 generated by ionizing radiation, AlphaScreen SureFire); type: cell-based; conditions: phosphorylated Chk2 in NCI-H460 cells, ionizing radiation 8Gy, 1 hour after test compound treatment; read-out: ATM inhibitory activity
Sequence (Q13315 whole entry): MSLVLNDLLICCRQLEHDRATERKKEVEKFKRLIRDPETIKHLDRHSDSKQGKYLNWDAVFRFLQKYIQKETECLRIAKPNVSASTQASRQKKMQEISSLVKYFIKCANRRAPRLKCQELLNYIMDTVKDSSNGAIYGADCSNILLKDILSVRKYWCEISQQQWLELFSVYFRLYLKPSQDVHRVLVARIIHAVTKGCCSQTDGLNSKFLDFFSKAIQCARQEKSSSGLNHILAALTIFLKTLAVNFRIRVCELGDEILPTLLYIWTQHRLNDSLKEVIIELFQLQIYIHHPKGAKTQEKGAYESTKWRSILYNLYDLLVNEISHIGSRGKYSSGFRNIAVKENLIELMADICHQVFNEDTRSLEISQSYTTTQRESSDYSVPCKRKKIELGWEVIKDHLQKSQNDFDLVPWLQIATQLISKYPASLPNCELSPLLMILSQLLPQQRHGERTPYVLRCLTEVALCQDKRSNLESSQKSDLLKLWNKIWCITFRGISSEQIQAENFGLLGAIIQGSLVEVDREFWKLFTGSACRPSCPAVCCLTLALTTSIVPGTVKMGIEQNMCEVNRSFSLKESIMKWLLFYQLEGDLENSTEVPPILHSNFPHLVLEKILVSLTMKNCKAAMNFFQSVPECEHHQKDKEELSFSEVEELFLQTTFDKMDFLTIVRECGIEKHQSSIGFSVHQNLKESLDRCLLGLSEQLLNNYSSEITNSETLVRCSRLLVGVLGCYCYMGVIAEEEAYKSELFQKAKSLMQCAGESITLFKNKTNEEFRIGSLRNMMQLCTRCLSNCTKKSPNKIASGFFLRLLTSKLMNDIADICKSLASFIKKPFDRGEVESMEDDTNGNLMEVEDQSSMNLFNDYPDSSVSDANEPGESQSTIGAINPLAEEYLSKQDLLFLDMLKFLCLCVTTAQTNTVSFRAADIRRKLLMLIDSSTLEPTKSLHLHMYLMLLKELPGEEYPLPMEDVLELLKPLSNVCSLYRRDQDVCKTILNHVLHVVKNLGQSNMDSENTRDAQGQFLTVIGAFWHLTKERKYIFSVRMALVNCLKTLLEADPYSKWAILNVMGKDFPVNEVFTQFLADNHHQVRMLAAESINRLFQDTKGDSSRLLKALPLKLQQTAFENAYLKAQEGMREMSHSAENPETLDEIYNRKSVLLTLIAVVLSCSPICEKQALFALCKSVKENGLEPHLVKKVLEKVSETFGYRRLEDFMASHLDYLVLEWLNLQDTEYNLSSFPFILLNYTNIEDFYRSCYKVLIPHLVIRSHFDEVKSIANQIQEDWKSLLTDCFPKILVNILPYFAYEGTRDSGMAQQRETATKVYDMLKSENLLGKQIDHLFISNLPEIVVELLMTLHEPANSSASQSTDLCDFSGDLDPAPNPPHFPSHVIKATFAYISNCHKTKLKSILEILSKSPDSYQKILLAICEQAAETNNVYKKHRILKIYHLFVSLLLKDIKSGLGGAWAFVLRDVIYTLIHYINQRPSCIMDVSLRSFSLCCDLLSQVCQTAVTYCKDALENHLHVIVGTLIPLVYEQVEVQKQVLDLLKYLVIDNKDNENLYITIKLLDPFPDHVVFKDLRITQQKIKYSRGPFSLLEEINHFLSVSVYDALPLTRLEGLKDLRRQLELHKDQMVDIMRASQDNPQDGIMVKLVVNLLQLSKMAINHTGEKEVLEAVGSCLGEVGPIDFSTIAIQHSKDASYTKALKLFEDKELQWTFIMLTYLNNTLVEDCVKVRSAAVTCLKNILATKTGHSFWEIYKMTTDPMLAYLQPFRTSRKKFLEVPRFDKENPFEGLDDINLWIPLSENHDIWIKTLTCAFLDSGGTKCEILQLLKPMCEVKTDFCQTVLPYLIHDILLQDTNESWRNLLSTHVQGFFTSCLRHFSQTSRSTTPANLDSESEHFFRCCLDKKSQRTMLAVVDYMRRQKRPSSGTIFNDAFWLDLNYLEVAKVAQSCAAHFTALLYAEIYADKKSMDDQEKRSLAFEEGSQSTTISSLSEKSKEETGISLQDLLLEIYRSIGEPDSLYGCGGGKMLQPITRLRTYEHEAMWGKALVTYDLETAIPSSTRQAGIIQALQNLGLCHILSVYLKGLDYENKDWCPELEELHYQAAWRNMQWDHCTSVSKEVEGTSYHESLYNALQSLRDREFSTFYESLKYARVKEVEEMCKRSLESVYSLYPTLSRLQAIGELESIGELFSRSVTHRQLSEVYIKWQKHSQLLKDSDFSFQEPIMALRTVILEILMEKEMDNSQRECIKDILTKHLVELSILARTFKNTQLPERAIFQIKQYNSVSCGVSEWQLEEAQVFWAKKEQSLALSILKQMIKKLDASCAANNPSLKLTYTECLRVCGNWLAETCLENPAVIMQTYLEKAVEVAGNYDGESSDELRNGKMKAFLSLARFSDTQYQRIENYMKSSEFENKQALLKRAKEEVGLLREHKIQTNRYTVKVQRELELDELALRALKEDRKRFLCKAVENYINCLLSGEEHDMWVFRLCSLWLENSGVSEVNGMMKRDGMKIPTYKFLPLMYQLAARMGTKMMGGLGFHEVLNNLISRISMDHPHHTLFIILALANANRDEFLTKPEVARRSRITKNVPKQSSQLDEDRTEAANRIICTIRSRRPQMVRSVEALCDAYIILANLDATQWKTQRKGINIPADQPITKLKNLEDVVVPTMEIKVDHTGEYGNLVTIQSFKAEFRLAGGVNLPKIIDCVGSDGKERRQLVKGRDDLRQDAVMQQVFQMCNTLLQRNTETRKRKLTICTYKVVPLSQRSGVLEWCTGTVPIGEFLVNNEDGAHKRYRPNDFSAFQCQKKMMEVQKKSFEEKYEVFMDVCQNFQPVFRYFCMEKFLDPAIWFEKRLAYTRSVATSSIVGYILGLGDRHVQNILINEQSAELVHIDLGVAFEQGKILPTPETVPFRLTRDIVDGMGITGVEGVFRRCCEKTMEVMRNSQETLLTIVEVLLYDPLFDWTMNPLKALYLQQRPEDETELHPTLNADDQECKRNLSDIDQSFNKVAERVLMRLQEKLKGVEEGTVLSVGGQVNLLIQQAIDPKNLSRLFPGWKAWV
quantity measured: IC50

compound: Cc1cccc(C(CCN(C)C)Nc2ccc3c(c2)Sc2cccc(-c4cc(N5CCOCC5)cc(=O)[nH]4)c2S3)n1 (single isomer, unassigned) [Example 1-22-11-1]
reading: < 100 nM

compound: COc1ccc(CNc2ccc3c(c2)Cc2cccc(-c4cc(N5CCOCC5)cc(=O)[nH]4)c2O3)cn1 [Example 2-2-1]
reading: < 100 nM

compound: Cc1ccc(C(Nc2ccc3c(c2)Sc2cccc(-c4cc(N5CCOCC5)cc(=O)[nH]4)c2S3)[C@H]2CCCN2C)nc1 (single isomer, unassigned) [Example 1-56-5]
reading: < 100 nM

compound: CCCC(Nc1ccc2c(c1)Sc1cccc(-c3cc(N4CCOCC4)cc(=O)[nH]3)c1S2)[C@H](C)N1CCOCC1 (stereo partly shown) [Example 1-21-1]
reading: 100 to 500 nM

compound: COc1ccc(CCN2CCC(Nc3ccc4c(c3)Cc3cccc(-c5cc(N6CCOCC6)cc(=O)[nH]5)c3O4)CC2)cn1 [Example 2-28-38]
reading: 100 to 500 nM

compound: O=c1cc(N2CCOCC2)cc(-c2cccc3c2Sc2ccc(NCc4ccncc4)cc2C3)[nH]1 [Example 3-8-2]
reading: 500 to 2000 nM

compound: O=c1cc(N2CCOCC2)cc(-c2cccc3c2Sc2ccc(NCc4cncc(-n5ccnc5)c4)cc2S3)[nH]1 [Example 1-12-20]
reading: < 100 nM
